Record form. Attribute: IC50. Fill in for each entry.
# Assayed target: CCR5 (Homo sapiens)
# Construct: expressed in transfected cells; host or cells: HEK293 (clone C13, passage P4)
# Sequence (P51681 whole entry, species assumed): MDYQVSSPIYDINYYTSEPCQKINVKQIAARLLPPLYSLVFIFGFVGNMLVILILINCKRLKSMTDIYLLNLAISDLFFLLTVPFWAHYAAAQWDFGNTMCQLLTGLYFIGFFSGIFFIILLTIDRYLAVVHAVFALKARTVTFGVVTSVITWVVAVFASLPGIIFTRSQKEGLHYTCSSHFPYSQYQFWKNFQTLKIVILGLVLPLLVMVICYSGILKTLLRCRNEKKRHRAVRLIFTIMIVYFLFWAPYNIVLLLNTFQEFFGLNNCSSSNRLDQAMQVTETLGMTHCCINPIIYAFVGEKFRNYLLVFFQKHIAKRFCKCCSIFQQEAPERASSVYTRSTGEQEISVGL
# Assay notes: FLIPR calcium assay, CCR5 cell line
# Type: cell-based
# Assay context: HEK293 host cell, RANTES agonist, intracellular calcium signal; read-out: IC50 (nM) test results for FLIPR detection, CCR5
State the answer as a number, implicitly in nM.

q: Field request: IC50 | item: CCCCOCCOc1ccc(-c2ccc3c(c2)/C=C(/C(=O)Nc2ccc([S@+]([O-])Cc4c(C)ncn4CC)cc2)CCCN3CC2CCOC2)cc1 (stereo partly drawn) [WX014]
a: 6.28

q: Quick one: IC50 for CCCCOCCOc1ccc(-c2ccc3c(c2)/C=C(/C(=O)Nc2ccc([S@+]([O-])Cc4c(C)ncn4CC)cc2)CCCN3CC2CCOC2)cc1 (stereo partly drawn) [WX013] ?
a: 5.45

q: I would be grateful if you could share the reported IC50 for CCCCOCCOc1ccc(-c2ccc3c(c2)C=C(C(=O)Nc2ccc([S@+]([O-])Cc4c(C)ncn4CC)cc2)CCN3CC2CCCOC2)cc1 (stereo partly drawn) .
a: 8.27

q: Any idea what its IC50 is? The compound is CCCCOCCOc1ccc(-c2ccc3c(c2)/C=C(/C(=O)Nc2ccc([S@+]([O-])Cc4c(C)ncn4CC)cc2)CCCN3CC2CCCCO2)cc1 (stereo partly drawn)
a: 6.04

q: What value of IC50 has been reported for the following compound? CCCCOCCOc1ccc(-c2ccc3c(c2)/C=C(/C(=O)Nc2ccc([S@+]([O-])Cc4c(C)ncn4CC)cc2)CCCN3CC2COCCO2)cc1 (stereo partly drawn) [WX025]
a: 1.38

q: Which value of IC50 has been reported for CCCCOCCOc1ccc(-c2ccc3c(c2)/C=C(/C(=O)Nc2ccc([S@+]([O-])Cc4c(C)ncn4CC)cc2)CCCN3CC2CCN(C)CC2)cc1 in the records?
a: 6.78

q: Request the reported IC50 associated with CCCCOCCOc1ccc(-c2ccc3c(c2)/C=C(/C(=O)Nc2ccc([S@+]([O-])Cc4c(C)ncn4CC)cc2)CCCN3CC2COC2)cc1
a: 6.3

q: Reported IC50 for CCCCOCCOc1ccc(-c2ccc3c(c2)/C=C(/C(=O)Nc2ccc([S@+]([O-])Cc4c(C)ncn4CC)cc2)CCCCN3CC2CCCOC2)cc1 (stereo partly drawn) [WX006] : what is it?
a: 8.44

q: Query: IC50; subject: CCCCOCCOc1ccc(-c2ccc3c(c2)/C=C(/C(=O)Nc2ccc([S@+]([O-])Cc4c(C)ncn4CC)cc2)CCCN3CC2CCOCC2)cc1
a: 4.25
